Each recorded value in this set is attributed to patent US20130252951A1.

Measured On: human CCR2 (Homo sapiens, UniProt P41597)
Sequence (P41597 whole entry): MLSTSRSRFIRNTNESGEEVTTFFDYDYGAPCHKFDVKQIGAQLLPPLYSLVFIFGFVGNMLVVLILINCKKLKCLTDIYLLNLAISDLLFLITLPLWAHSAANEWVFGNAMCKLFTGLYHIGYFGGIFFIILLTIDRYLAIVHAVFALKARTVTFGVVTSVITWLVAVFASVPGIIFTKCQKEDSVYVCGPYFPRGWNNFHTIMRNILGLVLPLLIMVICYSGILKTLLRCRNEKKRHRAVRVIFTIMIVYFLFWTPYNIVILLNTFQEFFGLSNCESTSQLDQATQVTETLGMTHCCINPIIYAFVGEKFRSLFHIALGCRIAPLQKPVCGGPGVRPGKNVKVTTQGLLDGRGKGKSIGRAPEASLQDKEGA
Assay Explanation: CCR2 functional calcium assay (FLIPR calcium flux, hMCP-1 challenge)
Assay type: cell-based
Set-up: expressed in transfected cells; host or cells: HEK293 EBNA cells
Condition Label: HEK293 EBNA cells transfected with human CCR2, hMCP-1 challenge; read-out: Functional CCR2 fKi
Description: The CCR2 receptor couples through the Gi/Gq signaling pathway and results in activation of calcium mobilization. The functional activity of test compounds was routinely tested by measuring the ability of compounds to antagonize CCR2 activity in a dose dependent manner, in HEK293 EBNA cells transfected with the human CCR2 receptor (hMCP-1 challenge), using a calcium flux Fluorescent Imaging Plate Reader FLIPR assay. Non-transfected HEK293 EBNA cells were used as control of non-specific response. […]
A collection of compounds and their measured Ki
Test Readout: Ki

- COCCNC(=O)c1cnn2c(O)c(Cc3ccc(C(F)(F)F)cc3)c(C)nc12: 100 to 1000 nM
- Cc1nc2c(C(=O)N3CCOCC3)cnn2c(O)c1Cc1ccc(C(F)(F)F)cc1: 100 to 1000 nM
- Oc1c(Cc2ccc(F)c(F)c2)c(C2CCC2)nc2ccnn12: < 10 nM
- Cc1nc2ccnn2c(O)c1Cc1ccc(F)c(C#N)c1: 100 to 1000 nM
- Oc1c(Oc2ccc(Br)cc2)c(C2CC2)nc2ccnn12: < 10 nM
